Hi! I'm sharing some MIC results obtained with Chaetomium globosum.
Hi! Could you send only the number? It should be in µg/mL, unit omitted.

compound | MIC, µg/mL
Cc1ccnn1-c1nc2ccccc2c(=O)[nH]1 [Active compound D] | 5
Cc1ccn(-c2nc3ccccc3c(=O)[nH]2)n1 [Active compound C] | 5
O=c1[nH]c(-n2cccn2)nc2ccccc12 [Active compound A, 2-(1H-Pyrazol-1-yl)-4-(3H)-quinazolinone] | 100

# evaluate next
Problem: # get_value(readout= MIC, system= Chaetomium globosum) for Cc1cnn(-c2nc3ccc(Cl)cc3c(=O)[nH]2)c1 [Active compound G]
Solution: 1

====

Hi! I'm sharing some MIC results obtained with Polyporus versicolor.
Hi! Could you send only the number? It should be in µg/mL, unit omitted.

Use the examples below as a reference point.
structure-smiles | value-type | unit | val
Cc1ccn(-c2nc3ccccc3c(=O)[nH]2)n1 | MIC | µg/mL | 35
O=c1[nH]c(-n2cccn2)nc2ccccc12 | MIC | µg/mL | 20
CCc1cnn(-c2nc3ccccc3c(=O)[nH]2)c1 | MIC | µg/mL | 30

# evaluate next
Problem: What MIC value was documented for this compound, Cc1ccnn1-c1nc2ccccc2c(=O)[nH]1 ?
Solution: 15

Source listed as patent US4644000A.
